EXPERIMENTAL_DETAILS: iv and os pharmacokinetics in mice
Assay type: in vivo
TEST_SETTINGS: male, CD-1, mouse, plasma, 5 mg/kg
ASSAY_READOUT: clearance

Dear colleague, I am looking for the recorded clearance of the following compound: COc1cc(Sc2c(-c3cc[nH]c3)[nH]c3ccccc23)cc(OC)c1OC [Compound 5] 28.6 mL/min/kg
